Values were extracted from patent US7364741.

target: HLA-A2.1 molecules expressed by 174CEM.T2 cells (human); test: T2 HLA-A2.1 stabilisation, flow cytometry (BB7.2), peptide 200 ug/ml

{"binder": "YMLDLQPET (modifications not checked) [… (residues 11-19 of HPV16 protein E7)]", "MF (mean fluorescence)": 284}
{"binder": "TLEDLLMGT (modifications not checked) [… (residues 78-86 of HPV16 protein E7)]", "MF (mean fluorescence)": 183}
{"binder": "LCTELQTTI (modifications not checked) [… (residues 22-30 of HPV16 protein E6)]", "MF (mean fluorescence)": 114}
{"binder": "LFLNTLSFV (modifications not checked) [… (residues 89-97 of HPV18 protein E7)]", "MF (mean fluorescence)": 360}
{"binder": "FQQLFLNTL (modifications not checked) [… (residues 86-94 of HPV18 protein E7)]", "MF (mean fluorescence)": 244}
{"binder": "GTLGIVCPI (modifications not checked) [… (residues 85-93 of HPV16 protein E7)]", "MF (mean fluorescence)": 216}
{"binder": "LTNTGLYNL (modifications not checked) [… (residues 93-101 of HPV18 protein E6)]", "MF (mean fluorescence)": 352}
{"binder": "PLCDLLIRC (modifications not checked) [… (residues 102-110 of HPV16 protein E6)]", "MF (mean fluorescence)": 205}
